Test system: efflux pump activity in P. aeruginosa (PA-017, blaNDM)
Assay: EtBr accumulation, inhibition of efflux pump activity
Assay type: cell-based
Details: EtBr fluorescence compared with positive control CCCP
readout: EPi (inhibition of efflux pump activity)

// solved cases for EPi (inhibition of efflux pump activity) follow
# molecule, recorded result
rows = [
    ("CC(C)(C)CCOc1c(-c2ccc(F)c(F)c2)oc2cc(OCC(=O)N[C@@H](CCCCN)C(=O)O)cc(O)c2c1=O.Cl [Compound 11]", "- ^f"),
    ("CC(C)(C)CCOc1c(-c2ccc(F)c(F)c2)oc2cc(OCC(=O)N3CCCCC3)cc(O)c2c1=O [Compound 10]", "- ^f"),
    ("O=c1c(OCCC2CCCCC2)c(-c2ccc(F)c(F)c2)oc2cc(O)cc(O)c12 [Compound 3]", "↑↑↑ ^e"),
    ("CC(C)(C)CCOc1c(-c2ccc(F)c(F)c2)oc2cc(O)cc(O)c2c1=O [Compound 1]", "↑↑↑ ^e"),
]

Challenge: Provide the documented EPi (inhibition of efflux pump activity) with efflux pump activity in P. aeruginosa (PA-017, blaNDM) as the system for CN1CCN(CCOc2cc(O)c3c(=O)c(OCCC4CCCC4)c(-c4ccc(F)c(F)c4)oc3c2)CC1 [Compound 14]
Response given: - ^f

Challenge: // fetch efflux pump activity in P. aeruginosa (PA-017, blaNDM) EPi (inhibition of efflux pump activity) for CC(C)(C)CCOc1c(-c2ccc(F)c(F)c2)oc2cc(OCC(=O)Nc3ccccc3)cc(O)c2c1=O [Compound 9]
Response given: - ^f

Challenge: Lab note: need EPi (inhibition of efflux pump activity) for CN1CCN(CCOc2cc(O)c3c(=O)c(OCCC(C)(C)C)c(-c4ccc(F)c(F)c4)oc3c2)CC1 [Compound 13] on efflux pump activity in P. aeruginosa (PA-017, blaNDM), anyone have it?
Response given: - ^f

Every entry's value here was drawn from paper PMC11672637.
